Sourced from a melting point compilation (Tetko et al.; mined from patent text by program, amines drawn as free bases though some values may be those of a salt)

Catalogue of molecules with associated melting point

molecule	melting point
CC(=O)c1ccc(OCCCC(=O)O)c(C)c1	114 to 116 °C
CNc1ccc(F)c2c1C(=O)c1ccccc1-2	139 to 144 °C
CC12CCC3c4ccc(C(=O)O)cc4CCC3C1CCC2C(=O)CCc1ccccc1 (stereo unspecified)	181 to 183 °C
Cc1ccc(C)c(NC(=O)CN2CCN(c3ncccc3C#N)CC2)c1	106 to 108 °C
COc1ccc(OC(N)=O)cc1	> 300 °C

// below: melting point requested for another molecule
Please look up its melting point: "Clc1ccc(Oc2ccccc2Oc2ncc(Br)cn2)nc1"
93 to 95 °C
